- Tested on: UACC-257 melanoma
- method description: NCI-60 one-dose screen, 48 h
- details: 10 µM
Compounds without any hit were thinned out: in the full panel of roughly 83,000, 20% have a hit. Activity calls are given as the source filed them. The calls were made as follows: active = growth percent below 10; inactive = the rest.
Classes used: T = active, F = inactive

>>> assigned_category("COc1cc2cc3c(nc2cc1OC)CCN3Cc1ccc(NC(=O)c2ccc(Cl)c(C(F)(F)F)c2)cc1")
"F"
>>> assigned_category("Cc1ncc(-c2ccoc2)c(NC2CCCCCC2)n1")
"F"
>>> assigned_category("COc1ccc(Cl)cc1-n1nnc(-c2nc3ccccc3[nH]2)c1N")
"F"
>>> assigned_category("O=C(C[P+](c1ccccc1)(c1ccccc1)c1ccccc1)C[P+](c1ccccc1)(c1ccccc1)c1ccccc1")
"T"
>>> assigned_category("CC1CC(=O)OC(C)C1 (configuration not stated)")
"F"
>>> assigned_category("CCOC(=O)C(NC(=O)C(Cl)Cl)C(O)c1ccccc1 (configuration not stated)")
"F"
>>> assigned_category("COc1cc(CNCCCCCCN2C(=O)c3cccc4cccc(c34)C2=O)ccc1O")
"F"
>>> assigned_category("COc1ccc(OC)c(/C=C/c2nnc(Nc3ccc(Cl)cc3)o2)c1")
"F"
>>> assigned_category("N=C1c2nc3n(c2C(=O)c2nc4n(c21)CCCC4)CCCC3")
"T"
>>> assigned_category("Cc1cc(C)c(CCc2cc(C)c(C)cc2C)cc1C")
"F"
>>> assigned_category("CN(C)c1ccc(-c2cc(-c3cccc(NS(C)(=O)=O)c3)nc(N)c2C#N)cc1")
"F"
>>> assigned_category("O=C(Nc1ccc(CO)cc1)c1ccccc1Nc1ccnc(C(F)(F)F)c1")
"F"
>>> assigned_category("C=C1c2c(C)nn(-c3ccc(OC)cc3)c2N(C)C23C[C@@H]1C1(C)c4c(C)nn(-c5ccc(OC)cc5)c4N(C)C(C)(C[C@H]12)C3 (some centres not stated)")
"F"
>>> assigned_category("O=[P@@]1(c2ccccc2)O[C@H](COCc2ccccc2)[C@@H](OCc2ccccc2)[C@H](OCc2ccccc2)[C@H]1O")
"F"
>>> assigned_category("O=C1NC(=O)N(Cc2ccccc2)CC1Br (configuration not stated)")
"F"
>>> assigned_category("CCOC1(OCC)OC(c2ccccc2)=C(C#N)C(/C=C\\c2ccccc2)C1(OCC)OCC (configuration not stated)")
"F"
>>> assigned_category("COc1cc(/C=N/NC(=O)c2ccccc2Nc2cccc(C(F)(F)F)c2)cc(OC)c1OC")
"F"

Where these numbers come from: PubChem BioAssay (NCI)
